These entries and their values trace back to patent US20150246136A1.

- subject-of-test: Mesothelin (SwissProt reference Q13421-3) (Homo sapiens, UniProt Q13421 37-622)
- test-protocol: cell-based or functional assay
readout: IC50 (nM), HT29 meso+ cells, MTT proliferation assay

INSERT INTO measurements (binder, endpoint_unit, qualifier_operator, quantitative_result) VALUES
  ('Example 76, conjugate of anti-mesothelin antibody MF-Ta (antibody, human IgG1, lambda, V domains shown, toxophore-linker on Cys sulfur, sites not given) VH: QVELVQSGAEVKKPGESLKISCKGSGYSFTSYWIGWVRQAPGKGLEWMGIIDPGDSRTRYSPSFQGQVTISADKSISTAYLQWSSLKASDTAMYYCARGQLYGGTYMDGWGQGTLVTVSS VL: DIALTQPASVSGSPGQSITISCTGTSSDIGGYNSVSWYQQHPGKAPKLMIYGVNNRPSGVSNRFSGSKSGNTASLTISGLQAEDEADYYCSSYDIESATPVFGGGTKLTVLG', 'nM', '=', 0.35),
  ('Example 151, conjugate of anti-mesothelin antibody MF-Ta (antibody, human IgG1, lambda, V domains shown, toxophore-linker on Cys sulfur, sites not given) VH: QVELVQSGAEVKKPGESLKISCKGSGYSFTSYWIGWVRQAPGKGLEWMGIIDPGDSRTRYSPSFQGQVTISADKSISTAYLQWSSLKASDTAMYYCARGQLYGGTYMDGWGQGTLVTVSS VL: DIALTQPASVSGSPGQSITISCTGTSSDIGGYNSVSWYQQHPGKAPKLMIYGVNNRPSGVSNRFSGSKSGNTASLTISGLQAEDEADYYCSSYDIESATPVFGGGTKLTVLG', 'nM', '>', 1000),
  ('Example 97, conjugate of anti-mesothelin antibody MF-Ta (antibody, human IgG1, lambda, V domains shown, toxophore-linker on Cys sulfur, sites not given) VH: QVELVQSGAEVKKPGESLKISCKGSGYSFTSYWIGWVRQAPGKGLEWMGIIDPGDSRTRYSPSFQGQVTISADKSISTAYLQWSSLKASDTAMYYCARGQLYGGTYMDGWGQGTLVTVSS VL: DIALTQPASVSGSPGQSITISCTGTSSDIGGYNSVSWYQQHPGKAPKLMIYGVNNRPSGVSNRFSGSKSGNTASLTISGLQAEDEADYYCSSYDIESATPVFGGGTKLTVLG', 'nM', '=', 0.2);
